Reference source for all entries: the supplement of paper PMC10646978

Task for the reader: assign each of the following molecules its reported viability score.
test system: RAW-Dual (murine macrophage reporter line); assay: viability score (confluency relative to resting cells, overnight) (fraction); higher = more viable, active = viable (0.7 or more); conditions: modulator concentration 10 µM
Give bare numbers.

See these solved cases before continuing.
1. C1N2CN3CN1CN(C2)C3 = 1
2. CCC(CNC(=O)Cc1c(F)cccc1Cl)(OC)c1ccccc1 (stereo unspecified) = 0.825
3. S=C(NCc1ccc2c(c1)OCO2)N1CCN(c2ncnc3c2oc2ccccc23)CC1 = 0.958
4. CCN(CC)CCNC(=O)c1c(C)[nH]c(/C=C2\C(=O)Nc3ccc(F)cc32)c1C.O=C(O)C[C@H](O)C(=O)O = 0.117
5. Cc1ccc(OCC(O)CN2CCCCC2)c(C)c1.Cl (stereo unspecified) = 0.809

Respectfully, I request viability score for each entry included below.
1. CCCCOC(=O)C1=C(C)NC2=C(C(=O)CCC2)C1c1cccc(C(F)(F)F)c1 (stereo unspecified)
2. COC(CNC(=O)c1cc2ccccc2[nH]1)c1ccc(Cl)s1 (stereo unspecified)
3. O=C(Cc1ccc(F)cc1)NCC1CCCN1c1ccccc1 (stereo unspecified)
4. CC1(C)CC(=O)c2sc(NC(=O)c3ccccc3)nc2C1
5. CC(=O)Nc1ccc(O)cc1
6. COc1cccc2c1C(=O)c1c(O)c3c(c(O)c1C2=O)C[C@@](O)(C(=O)CO)C[C@@H]3O[C@@H]1C[C@H](N)[C@@H](O)[C@H](C)O1

[reply]
[1.01, 0.882, 0.992, 1, 0.998, 0.458]
